Measured TGI of individual entries
Tested on: CAKI-1 renal
ASSAY NAME: NCI tumour cell line growth inhibition, 48 h
*1 amine or outer side, *2 acyl side, *3 side chain or, on linkers, in order; H or OH if unused. Where a SMILES comes first, the peptide text is derived from it. Bridges are numbered along the chain shown (N, C = ends). [ ]: non-standard residue; d: D form. The star is where a group is joined. X38 = CC[C@H](C)[C@@H](N[*:1])[C@@H](O)CC(=O)[*:2]; NMeY = CN[C@@H](Cc1ccc(O)cc1)C(=O)O; dNMeL = CN[C@H](CC(C)C)C(=O)O; Hiv = CC(C)[C@H](O)C(=O)O; Pyruvoyl = CC(=O)C(=O)*
READOUT: TGI

>>> val("O=C(CCN1CCCC1)Nc1ccc2c(NCc3ccc(F)cc3)c3ccccc3nc2c1")
"5.42 µM"
>>> val("NS(=O)(=O)c1cc2c(cc1Cl)NC(C(=O)c1cc(=O)c3ccc(O)cc3o1)=NS2(=O)=O")
"> 100 µM"
>>> val("COc1cccc(OC(=O)c2ccccc2Nc2ccnc(C(F)(F)F)c2)c1")
"80.2 µM"
>>> val("COc1cc(/C=C\\c2ccccn2)cc(OC)c1OC")
"> 100 µM"
>>> val("Nc1nc(/C=C\\c2ccc([N+](=O)[O-])o2)nc(N2CCN(c3ccccc3)CC2)n1")
"10.8 µM"
>>> val("CCn1c(-c2nonc2N)nc2cncc(C(=O)N3CCNCC3)c21")
"> 25 µM"
>>> val("C=C(c1ccccc1)C1ON(C)CCc2cc(OC)c(OC)cc21 (centres undefined)")
"> 100 µM"
>>> val("N#CC(C#N)=CN1CCN(C(=O)c2ccco2)C1=S")
"30.5 µM"
>>> val("C=C1C(=O)O[C@H]2C[C@@H](C)[C@@H]3CC(=O)OC[C@@]3(C)CC12 (some centres undefined)")
"51 µM"
>>> val("C/C(CN1C(=O)c2ccccc2C1=O)=N\\NS(=O)(=O)c1ccc(Br)cc1")
"> 100 µM"
>>> val("COc1ccc2c(c1)CC[C@@H]1[C@@H]2CC[C@]2(C)C(=O)C3(CCCCC3)C[C@@H]12")
"> 100 µM"
>>> val("C=C(C)[C@@H]1CC=C(CO)CC1")
"> 10 µM"
>>> val("O=c1c2cc(S(=O)(=O)Nc3ccccc3Cl)ccc2ncn1NS(=O)(=O)c1ccc(Br)cc1")
"> 37.5 µM"
>>> val("Fc1ccc2[nH]cc(Cc3c[nH]c4ccc(F)cc34)c2c1")
"34.3 µM"
>>> val("CC1Oc2cc3c(-c4c(O)cc(O)c5c(O)c6c(cc45)OC(C)C(C)C6=O)c(O)cc(O)c3c(O)c2C(=O)C1C (centres undefined)")
"2.36 µM"
>>> val("COc1cc(S(=O)(=O)Nc2ccc(-c3csc(N4C(=O)CSC4c4cccs4)n3)cc2)ccc1Cl (centres undefined)")
"> 100 µM"
>>> val("COc1ccc(C2c3cc4c(cc3C(O)C3CCC(=O)N23)OCO4)cc1 (centres undefined)")
"> 100 µM"
>>> val("COc1ccc(OC)c2sc(N3C(=O)/C(=C/Cc4ccco4)N=C3c3ccccc3)nc12")
"> 100 µM"
>>> val("CC[C@H](C)[C@H]1NC(=O)[C@@H](NC(=O)[C@@H](CC(C)C)N(C)C(=O)[C@@H]2CCCN2C(=O)C(C)=O)[C@@H](C)OC(=O)[C@H](Cc2ccc(OC)cc2)N(C)C(=O)[C@@H]2CCCN2C(=O)[C@H](CC(C)C)NC(=O)[C@H](C(C)C)OC(=O)C[C@@H]1O (Pyruvoyl-P[dNMeL]T[X38][Hiv]LP[NMeY](Me); ester 3-C)")
"1.22 µM"
>>> val("COc1ccc(/C=C2/C(C)=NN(c3cccc(Cl)c3)/C2=N/c2nc3ccccc3s2)cc1")
"86.6 µM"
>>> val("CC12CCC(=O)C=C1CCC1C2CCC2(C)C(C(=O)Cn3cnc4c(=S)nc[nH]c43)CCC12 (centres undefined)")
"> 100 µM"
>>> val("O=C1C/C(=C/c2ccc(/C=C3/CC(=O)N(c4cccc(Br)c4)C3=O)cc2)C(=O)N1c1cccc(Br)c1")
"> 100 µM"
>>> val("CCOC(=O)/C(N=Nc1ccc(-n2c(C)nc3ccccc3c2=O)cc1)=C(/C)O")
"> 100 µM"
>>> val("Cn1c(=O)c2[nH]c(/N=N/N3CCN(CCO)CC3)nc2n(C)c1=O")
"> 100 µM"
>>> val("O=C(O)CS(=O)(=O)C(c1ccccc1)c1ccccc1")
"> 100 µM"
>>> val("C=C1C(=O)C([Si](C)(C)C)=C2C=C(C)C3(CC3)C12C (centres undefined)")
"> 100 µM"
>>> val("O=c1[nH]c(=O)n(C2OC(CO)C(O)C(F)C2O)cc1F (centres undefined)")
"> 100 µM"
>>> val("C=C1C(=O)O[C@@H]2C1CC(=O)C(C)CC/C=C(\\C)CCC[C@H](C)[C@H]2OC(C)=O (some centres undefined)")
"24.4 µM"
>>> val("CC1=CC(=O)c2c(O)cccc2C1=O")
"3.24 µM"
>>> val("NC(=O)C(Nc1c(Cl)cccc1Cl)c1cc2cc(Br)ccc2nc1Cl (centres undefined)")
"> 100 µM"
>>> val("O=C1NC(N2CCOCC2)=N/C1=C\\c1cccs1")
"> 100 µM"
>>> val("CSC1=N[C@H](c2ccccc2)CS1")
"> 100 µM"
>>> val("CCCN1C(=O)/C(=c2\\sc3n(c2=O)C2C(NN=3)N(CC)C(=O)N2CC)c2ccccc21 (centres undefined)")
"16.1 µM"
>>> val("CC(C)(O)c1ccc(N2CCN(c3nnc(Cc4ccccc4)c4ccccc34)CC2)nc1")
"30.9 µM"
>>> val("c1ccc2[nH]c(-c3ccc(N4CCN(c5ccc(-c6nc7ccccc7[nH]6)cc5)CC4)cc3)nc2c1")
"> 100 µM"
>>> val("Clc1cccc(Cl)c1C=NC12CC3CC(CC(C3)C1)C2")
"> 10 µM"
>>> val("COC(=O)c1[nH]c(=S)[nH]c(=O)c1-c1ccc(Cl)cc1")
"> 50 µM"
>>> val("COc1cc2nc(Cl)nc(Nc3cccc(C(=O)/C=C/c4ccccc4)c3)c2cc1OC")
"35.4 µM"
>>> val("COC(=O)N1C[C@@]2(C=CC3(CC2)OCCO3)c2ccccc21")
"> 100 µM"
